Test system: rat liver mitochondria (RLM)
assay protocol: Mitochondrial transmembrane electric potential (safranine fluorescence)
Assay type: biochemical
condition description: Succinate, 2.5 μM
reported metric: ADP-induced depolarization (ΔΨ in - mV)

// known answers, use as guide
O=C(NCCCCCC[P+](c1ccccc1)(c1ccccc1)c1ccccc1)c1ccc(O)c(O)c1.[Br-] [AntiOxBEN1] = 180.3 ± 17.1 - mV
O=C(CCCCC[P+](c1ccccc1)(c1ccccc1)c1ccccc1)NCCCCCCNC(=O)c1cc(O)c(O)c(O)c1.[Br-] [AntiOxBEN3] = 188.0 ± 19.7 - mV
O=C(NCCCCCC[P+](c1ccccc1)(c1ccccc1)c1ccccc1)c1cc(O)c(O)c(O)c1.[Br-] [AntiOxBEN2] = 184.5 ± 19.2 - mV

// query ADP-induced depolarization (ΔΨ in - mV) value for entry COC1=C(OC)C(=O)C(CCCCCCCCCC[P+](c2ccccc2)(c2ccccc2)c2ccccc2)=C(C)C1=O.CS(=O)(=O)[O-] [MitoQ, reference compound]
162.1 ± 6.0 - mV
